Readings of Rel. luciferase activity (%) 3 for the listed compounds
Tested on: STAT3
Assay: STAT3-dependent luciferase reporter assay in MDA-MB-231-STAT3 stable cells
Format: cell-based, human
Conditions: 20 μM, experiment 3, relative to DMSO
The response must be a number in % with no trailing unit.

Example results:
O=C(O)c1cc(N2C(=O)C(=Cc3ccc([N+](=O)[O-])cc3)C=C2c2ccccc2)ccc1O ... 92.8
O=C(O)c1ccc(N2C(=O)C(=Cc3ccc(-c4ccc(Cl)c(Cl)c4)o3)C=C2c2ccccc2)cc1 ... 40.8
O=C1C(=Cc2ccc(Cl)cc2)C=C(c2ccccc2)N1c1ccc(F)cc1 ... 61.1
CC(=O)c1cccc(N2C(=O)C(=Cc3ccc(Cl)cc3)C=C2c2ccccc2)c1 ... 91.2
O=C1C(=Cc2ccc(Cl)cc2)C=C(c2ccccc2)N1c1cccc(Cl)c1 ... 104.0
CC(=O)c1cccc(N2C(=O)C(=Cc3ccc(-c4ccc([N+](=O)[O-])cc4)o3)C=C2c2ccccc2)c1 ... 57.5
COc1ccc(C=C2C=C(c3ccccc3)N(c3ccccc3Cl)C2=O)cc1 ... 51.5

Read the next record carefully.
Specify measured Rel. luciferase activity (%) 3 for `COC(=O)c1cccc(N2C(=O)C(=Cc3ccc(Cl)cc3)C=C2c2ccccc2)c1` .
60.1
